test system: A2780; assay: Antiproliferative activity against human A2780 cells in lipid reduced medium in absence of palmitate; assay type: functional, cell-based
Entries annotated with measured log10(IC50)
Remember, log10 of IC50, in nM.

Example entries begin here.
| Compound | Assay target | log10(IC50) |
| --- | --- | --- |
| CC1(C)N=C(c2ccc(-c3ccc4cccnc4c3)cc2)N(C[C@@H]2CCN(C(=O)C3CC3)C2)C1=O | A2780 | 1.88 |
| CC1(C)N=C(c2ccc(-c3ccc4[nH]ccc4c3)cc2)N(C[C@@H]2CCN(C(=O)C3CC3)C2)C1=O | A2780 | 1.87 |
| Cn1cc(-c2ccc(-c3ccc(C4=NC(C)(C)C(=O)N4C[C@@H]4CCN(C(=O)C5(O)CC5)C4)c(F)c3)cc2)cn1 | A2780 | 0.73 |
| CC1(C)N=C(c2ccc(-c3ccc4cccc(F)c4c3)cc2)N(CC2CN(C(=O)C3CC3)C2)C1=O | A2780 | 2.67 |

Turning now to a further compound:
Incoming: # query: log10(IC50) | item CC1(C)N=C(c2ccc(-c3nc4ccccc4[nH]3)cc2)N(C[C@@H]2CCN(C(=O)C3CC3)C2)C1=O | system: A2780
Outgoing: 3.97

---

system: A2780; test: Antiproliferative activity against human A2780 cells in lipid reduced medium in presence of palmitate; assay type: functional, cell-based
Property: IC50

| Compound | Property | Result |
| --- | --- | --- |
| CC1(C)N=C(c2ccc(-c3ccc4cccnc4c3)cc2)N(C[C@@H]2CCN(C(=O)C3CC3)C2)C1=O | IC50 | > 10 µM |
| Cn1cc(-c2ccc(-c3ccc(C4=NC(C)(C)C(=O)N4C[C@@H]4CCN(C(=O)C5(O)CC5)C4)c(F)c3)cc2)cn1 | IC50 | > 10 µM |
| CC1(C)N=C(c2ccc(-c3ccc4cccc(F)c4c3)cc2)N(CC2CN(C(=O)C3CC3)C2)C1=O | IC50 | 5.62 µM |
| CC1(C)N=C(c2ccc(-c3nc4ccccc4[nH]3)cc2)N(C[C@@H]2CCN(C(=O)C3CC3)C2)C1=O | IC50 | > 10 µM |

Turning now to a further compound:
Incoming: What IC50 value was documented for this compound, CC1(C)N=C(c2ccc(-c3ccc4[nH]ccc4c3)cc2)N(C[C@@H]2CCN(C(=O)C3CC3)C2)C1=O ?
Outgoing: > 10 µM
